# Tested on: human gingival fibroblasts (HGF)
# assay summary: Cytotoxicity, MTT method, HGF non-malignant cells
# Type: cell-based
# protocol conditions: 48 h, mean ± SD
measure name: CC50 (µM)
Please reply with the bare figure in µM and do not write the unit itself.

The reported CC50 of the molecule N[C@@H](Cc1ccc(N(CCCl)CCCl)cc1)C(=O)O [Melphalan, reference compound] was 73

====

# assay summary: Cytotoxicity, MTT method, HPLF non-malignant cells
# Type: cell-based, human
# protocol conditions: human, periodontal ligament fibroblasts (HPLF), non-malignant, mean ± SD
Label yes when CC50 at 48 h is strictly below 10 µM; otherwise label no.

Hi there! Is CC50 at 48 h for COc1ccc(/C=C2\CN(C(=O)C(=O)N3C/C(=C\c4ccc(OC)cc4)C(=O)/C(=C/c4ccc(OC)cc4)C3)C/C(=C\c3ccc(OC)cc3)C2=O)cc1 below 10 µM, do you know?
no

Record COc1cc(/C=C2\CN(C(=O)CC(=O)N3C/C(=C\c4cc(OC)c(OC)c(OC)c4)C(=O)/C(=C/c4cc(OC)c(OC)c(OC)c4)C3)C/C(=C\c3cc(OC)c(OC)c(OC)c3)C2=O)cc(OC)c1OC : is its CC50 at 48 h strictly below 10 µM?
yes

API: query returns whether the molecule falls strictly under 10 µM in CC50 at 48 h. Query: COc1cc(/C=C/C(=O)CC(=O)/C=C/c2ccc(O)c(OC)c2)ccc1O [Curcumin, reference compound]
no

Please check: CC50 at 48 h for O=C1/C(=C/c2ccccc2)CN(C(=O)C(=O)N2C/C(=C\c3ccccc3)C(=O)/C(=C/c3ccccc3)C2)C/C1=C\c1ccccc1 , strictly under 10 µM or not?
yes

Strictly below 10 µM in CC50 at 48 h? COc1ccc(/C=C2\CN(C(=O)C(=O)N3C/C(=C\c4ccc(OC)c(OC)c4)C(=O)/C(=C/c4ccc(OC)c(OC)c4)C3)C/C(=C\c3ccc(OC)c(OC)c3)C2=O)cc1OC
no

Hello, is CC50 at 48 h of the following molecule strictly smaller than 10 µM? COc1cc(/C=C2\CN(C(=O)C(=O)N3C/C(=C\c4cc(OC)c(OC)c(OC)c4)C(=O)/C(=C/c4cc(OC)c(OC)c(OC)c4)C3)C/C(=C\c3cc(OC)c(OC)c(OC)c3)C2=O)cc(OC)c1OC
yes

Could you please tell me whether CC50 at 48 h recorded for O=C1/C(=C/c2ccc(Cl)c(Cl)c2)CN(C(=O)CC(=O)N2C/C(=C\c3ccc(Cl)c(Cl)c3)C(=O)/C(=C/c3ccc(Cl)c(Cl)c3)C2)C/C1=C\c1ccc(Cl)c(Cl)c1 is less than 10 µM?
no

A record lists O=C1/C(=C/c2ccc(F)cc2)CN(C(=O)CC(=O)N2C/C(=C\c3ccc(F)cc3)C(=O)/C(=C/c3ccc(F)cc3)C2)C/C1=C\c1ccc(F)cc1 . Is its CC50 at 48 h below 10 µM?
yes

# check: CC50 at 48 h < 10 µM for O=C1/C(=C/c2ccccc2)CN(C(=O)CC(=O)N2C/C(=C\c3ccccc3)C(=O)/C(=C/c3ccccc3)C2)C/C1=C\c1ccccc1
yes

Given Cc1ccc(/C=C2\CN(C(=O)C(=O)N3C/C(=C\c4ccc(C)cc4)C(=O)/C(=C/c4ccc(C)cc4)C3)C/C(=C\c3ccc(C)cc3)C2=O)cc1 , is recorded CC50 at 48 h strictly lower than 10 µM?
no

Does the reported CC50 at 48 h of O=C1/C(=C/c2ccccc2)CN(CCCN2C/C(=C\c3ccccc3)C(=O)/C(=C/c3ccccc3)C2)C/C1=C\c1ccccc1 stay below 10 µM?
yes

The origin of these recorded values is paper PMC10821124.
